Each recorded value in this set is attributed to ChEMBL document CHEMBL5143685.

System: Cryptococcus neoformans
ASSAY NAME: Antifungal activity against Cryptococcus neoformans ATCC 208821 assessed as fungal growth inhibition incubated for 36 hrs by resazurin dye based analysis
Format: functional
Param label: returns 1.0 when MIC < 8 µM, returns 0.0 otherwise, including exact equality.

INSERT INTO assay_data (compound, answer_label) VALUES
  ('C[C@]1(C(=O)NCCCNCCCCNCCCNC(=O)[C@@]2(C)CCC[C@]3(C)c4cc(O)ccc4CC[C@@H]23)CCC[C@]2(C)c3cc(O)ccc3CC[C@@H]12.O=C(O)C(F)(F)F.O=C(O)C(F)(F)F', 0.0),
  ('OC(Cn1cncn1)(Cn1cncn1)c1ccc(F)cc1F [FLUCONAZOLE]', 0.0),
  ('C[C@]1(C(=O)O)CCC[C@]2(C)c3cc(OC(=O)CCCNCCCCCCCNCCCNC(=O)Oc4ccc5c(c4)[C@@]4(C)CCC[C@](C)(C(=O)O)[C@@H]4CC5)ccc3CC[C@@H]12.O=C(O)C(F)(F)F.O=C(O)C(F)(F)F', 1.0),
  ('C[C@]1(C(=O)O)CCC[C@]2(C)c3cc(OC(=O)NCCCNCCCCCCN)ccc3CC[C@@H]12.O=C(O)C(F)(F)F.O=C(O)C(F)(F)F', 0.0),
  ('CCCCCNC(=O)[C@@]1(C)CCC[C@]2(C)c3cc(OC(=O)CCCNCCCCCCCCCCCCNCCCNC(=O)Oc4ccc5c(c4)[C@@]4(C)CCC[C@](C)(C(=O)NCCCCC)[C@@H]4CC5)ccc3CC[C@@H]12.O=C(O)C(F)(F)F.O=C(O)C(F)(F)F', 1.0),
  ('CCCCCNC(=O)[C@@]1(C)CCC[C@]2(C)c3cc(OC(=O)CCCNCCCCCCNCCCNC(=O)Oc4ccc5c(c4)[C@@]4(C)CCC[C@](C)(C(=O)NCCCCC)[C@@H]4CC5)ccc3CC[C@@H]12.O=C(O)C(F)(F)F.O=C(O)C(F)(F)F', 1.0),
  ('CCCCCNC(=O)[C@@]1(C)CCC[C@]2(C)c3cc(OC(=O)CCCNCCCCCCCCCCNCCCNC(=O)Oc4ccc5c(c4)[C@@]4(C)CCC[C@](C)(C(=O)NCCCCC)[C@@H]4CC5)ccc3CC[C@@H]12.O=C(O)C(F)(F)F.O=C(O)C(F)(F)F', 1.0),
  ('C[C@]1(C(=O)NCCCNCCCCCCCN)CCC[C@]2(C)c3cc(O)ccc3CC[C@@H]12.O=C(O)C(F)(F)F.O=C(O)C(F)(F)F', 0.0),
  ('C[C@@]12CCC[C@](C)(C(=O)O)[C@H]1CCc1ccc(OC(=O)CCCNCCCCNCCCNC(=O)Oc3ccc4c(c3)[C@@]3(C)CCC[C@](C)(C(=O)O)[C@@H]3CC4)cc12.O=C(O)C(F)(F)F.O=C(O)C(F)(F)F', 1.0),
  ('C[C@@]12CCC[C@](C)(C(=O)O)[C@H]1CCc1ccc(OC(=O)CCCNCCCCCCNCCCNC(=O)Oc3ccc4c(c3)[C@@]3(C)CCC[C@](C)(C(=O)O)[C@@H]3CC4)cc12.O=C(O)C(F)(F)F.O=C(O)C(F)(F)F', 0.0);
